- Test system: SF-295 (human glioblastoma)
- assayText: In vitro antiproliferative MTT assay, SF-295
- Format: cell-based
- runConditions: Homo sapiens, SF-295; Table 2; MTT; read-out: IC50 SF295
pIC50: −log10 of the molar value.
parameterMeasured: pIC50

# molecule, qualifyingSign, experimentalResult
rows = [
    ("COc1cc(C(=O)N/N=C/c2coc3ccccc3c2=O)cc(OC)c1OC [Compound 5j]", "<", 4.60),
    ("COc1cc(C(=O)N/N=C/c2ccc(Br)cc2)cc(OC)c1OC [Compound 5r]", "=", 7.23),
    ("COc1cc(C(=O)N/N=C/c2ccc3c(c2)OCO3)cc(OC)c1OC [Compound 5h]", "=", 6.07),
    ("COc1cc(C(=O)N/N=C/c2ccc(O)c(O)c2)cc(OC)c1OC [Compound 5e]", "<", 4.60),
    ("COc1cc(C(=O)N/N=C/c2cc(C(C)(C)C)c(O)c(C(C)(C)C)c2)cc(OC)c1OC [Compound 5k]", "<", 4.60),
    ("COc1cc(C(=O)N/N=C/c2ccccc2)cc(OC)c1OC [Compound 5b]", "=", 6.59),
    ("COc1cc(/C=N/NC(=O)c2cc(OC)c(OC)c(OC)c2)cc(OC)c1OC [Compound 5i]", "<", 4.60),
    ("COc1ccc(/C=C\\c2cc(OC)c(OC)c(OC)c2)cc1O [CA-4, Combretastatin A4]", "=", 8.21),
    ("COc1cc(C(=O)N/N=C/c2ccc(-c3ccccc3)cc2)cc(OC)c1OC [Compound 5n]", "<", 4.60),
]

---

Examples of molecules with documented solubility at 2 h follow.
- assayText: Aqueous solubility assay by ultraviolet spectroscopy
- Assay type: physicochemical
- runConditions: water (saturated aqueous solution), thermodynamic from solid, 2 hours at 37°C, read-out: Aq. Solubility

# molecule, endpointUnit, solubility at 2 h
data = [
    ("COc1cc(C(=O)N/N=C/c2ccc3c(c2)OCO3)cc(OC)c1OC [Compound 5h]", "µg/mL", 1.34),
    ("COc1cc(C(=O)N/N=C/c2cc(C(C)(C)C)c(O)c(C(C)(C)C)c2)cc(OC)c1OC [Compound 5k]", "µg/mL", 0.0236),
    ("COc1cc(C(=O)N/N=C/c2ccc(Cl)cc2)cc(OC)c1OC [Compound 5q]", "µg/mL", 28.4),
]

---

Examples of molecules with documented SI Lymphocyte/ MDA-MB345 follow.
- Test system: MDA-MB435 (melanoma)
- assayText: In vitro antiproliferative MTT assay, MDA-MB435
- Format: cell-based
- runConditions: IC50 for human lymphocytes/IC50 for cancer cell line

# molecule, SI Lymphocyte/ MDA-MB345
data = [
    ("COc1cc(/C=N/NC(=O)c2cc(OC)c(OC)c(OC)c2)cc(OC)c1OC [Compound 5i]", 1),
    ("COc1cc(C(=O)N/N=C/c2ccc(-c3ccccc3)cc2)cc(OC)c1OC [Compound 5n]", 1.0),
    ("COc1cc(C(=O)N/N=C/c2ccc(F)cc2)cc(OC)c1OC [Compound 5p]", 2.34),
    ("COc1cc(C(=O)N/N=C/c2ccc3c(c2)OCO3)cc(OC)c1OC [Compound 5h]", 13.17),
    ("COc1ccc(/C=C\\c2cc(OC)c(OC)c(OC)c2)cc1O [CA-4, Combretastatin A4]", 0.42),
    ("COc1cc(C(=O)N/N=C/c2cccc(O)c2)cc(OC)c1OC [Compound 5c]", 32.50),
    ("COc1cc(C(=O)N/N=C/c2ccccc2)cc(OC)c1OC [Compound 5b]", 20.07),
    ("COc1cc(C(=O)N/N=C/c2ccc(Cl)cc2)cc(OC)c1OC [Compound 5q]", 3.07),
    ("COc1cc(C(=O)N/N=C/c2ccc(Br)cc2)cc(OC)c1OC [Compound 5r]", 1.81),
]

Ref: paper PMC3948622
